measurement-protocol: Pharmacokinetics in dogs (plasma concentration by HPLC)
Format: in vivo, dog (beagle)
condition-summary: dog, plasma, po, 2 mg/kg/day, Dog 1, day 3, 2 h; 2 mg/kg/day PO
reported-property: concentration at 2 h (ng/mL)

- Cc1cc(Nc2nccc(-c3ccncc3)n2)ccc1N.Cl.Cl [Compound 2, reference compound]: 122
- c1cc(Nc2nccc(-c3cccs3)n2)cc(OCCn2ccnc2)c1: 98

----------
measurement-protocol: Pharmacokinetics in dogs (plasma concentration by HPLC)
Type: in vivo, dog (beagle)
condition-summary: dog, plasma, po, 2 mg/kg/day, Dog 4, day 5; 2 mg/kg/day PO; read-out: AUCO- (to infinite time)
reported-property: AUC(0-inf) (ng·h/mL)

* c1cc(Nc2nccc(-c3cccs3)n2)cc(OCCn2ccnc2)c1 | 694
* Cc1cc(Nc2nccc(-c3ccncc3)n2)ccc1N.Cl.Cl [Compound 2, reference compound] | 575

----------
measurement-protocol: Pharmacokinetics in dogs (plasma concentration by HPLC)
Type: in vivo, dog (beagle)
condition-summary: dog, plasma, po, 2 mg/kg/day, Dog 3, day 1, 2 h; 2 mg/kg/day PO
reported-property: concentration at 2 h (ng/mL)

I = Cc1cc(Nc2nccc(-c3ccncc3)n2)ccc1N.Cl.Cl [Compound 2, reference compound]
II = c1cc(Nc2nccc(-c3cccs3)n2)cc(OCCn2ccnc2)c1
Prompt: Of the two listed items, I and II , which carries the larger concentration at 2 h figure? Please indicate the selected item by its label.
Completion: II

----------
measurement-protocol: Pharmacokinetics in dogs (plasma concentration by HPLC)
Type: in vivo, dog (beagle)
condition-summary: dog, plasma, po, 2 mg/kg/day, one dog (Dog 1), day 3; 2 mg/kg/day PO
reported-property: Cmax (ng/mL)
Report only the number, with the unit ng/mL understood.

Prompt: Entry under review: CCN(CC)CCOc1ccc(Nc2nccc(-c3ccncc3)n2)cc1.Cl.Cl [Compound 3, reference compound] . Reported Cmax?
Completion: 192

----------
measurement-protocol: Pharmacokinetics in dogs (plasma concentration by HPLC)
Type: in vivo, dog (beagle)
condition-summary: dog, plasma, po, 2 mg/kg/day, Dog 1, day 3; 2 mg/kg/day PO
reported-property: AUC(0-t) (ng·h/mL)

P = Cc1cc(Nc2nccc(-c3ccncc3)n2)ccc1N.Cl.Cl [Compound 2, reference compound]
Q = c1cc(Nc2nccc(-c3cccs3)n2)cc(OCCn2ccnc2)c1
Prompt: Which of these two has the smaller recorded AUC(0-t): P or Q ? Please indicate the selected item by its label.
Completion: Q
(Q: 143 ng·h/mL, P: 470 ng·h/mL)

----------
measurement-protocol: Pharmacokinetics in dogs (plasma concentration by HPLC)
Assay type: in vivo, dog (beagle)
condition-summary: dog, plasma, po, 2 mg/kg/day, Mean, day 1; 2 mg/kg/day PO
reported-property: Tmax (min)

P = c1cc(Nc2nccc(-c3cccs3)n2)cc(OCCn2ccnc2)c1
Q = Cc1cc(Nc2nccc(-c3ccncc3)n2)ccc1N.Cl.Cl [Compound 2, reference compound]
Prompt: Of the two listed items, P and Q , which carries the larger Tmax figure? Please indicate the selected item by its label.
Completion: P

----------
measurement-protocol: Pharmacokinetics in dogs (plasma concentration by HPLC)
Assay type: in vivo, dog (beagle)
condition-summary: dog, plasma, po, 2 mg/kg/day, Dog 4, day 5; 2 mg/kg/day PO
reported-property: Cmax (ng/mL)

a = Cc1cc(Nc2nccc(-c3ccncc3)n2)ccc1N.Cl.Cl [Compound 2, reference compound]
b = c1cc(Nc2nccc(-c3cccs3)n2)cc(OCCn2ccnc2)c1
Prompt: Which of these two has the smaller recorded Cmax: a or b ? Please indicate the selected item by its label.
Completion: b

----------
measurement-protocol: Pharmacokinetics in dogs (plasma concentration by HPLC)
Format: in vivo, dog (beagle)
condition-summary: dog, plasma, po, 2 mg/kg/day, Dog 1, day 1; 2 mg/kg/day PO
reported-property: half-life (h)

• c1cc(Nc2nccc(-c3cccs3)n2)cc(OCCn2ccnc2)c1 = 2.75

1 = CCN(CC)CCOc1ccc(Nc2nccc(-c3ccncc3)n2)cc1.Cl.Cl [Compound 3, reference compound]
2 = Cc1cc(Nc2nccc(-c3ccncc3)n2)ccc1N.Cl.Cl [Compound 2, reference compound]
Prompt: Which of these two has the smaller recorded half-life: 1 or 2 ? Please indicate the selected item by its label.
Completion: 2

----------
measurement-protocol: Pharmacokinetics in dogs (plasma concentration by HPLC)
Assay type: in vivo, dog (beagle)
condition-summary: dog, plasma, po, 2 mg/kg/day, Mean of 4 dogs, day 5, 0.5 h; 2 mg/kg/day PO
reported-property: concentration at 0.5 h (ng/mL)

a = Cc1cc(Nc2nccc(-c3ccncc3)n2)ccc1N.Cl.Cl [Compound 2, reference compound]
b = c1cc(Nc2nccc(-c3cccs3)n2)cc(OCCn2ccnc2)c1
Prompt: Of the two listed items, a and b , which carries the larger concentration at 0.5 h figure? Please indicate the selected item by its label.
Completion: a

----------
measurement-protocol: Pharmacokinetics in dogs (plasma concentration by HPLC)
Format: in vivo, dog (beagle)
condition-summary: dog, plasma, po, 2 mg/kg/day, Dog 2, day 5, 1 h; 2 mg/kg/day PO
Protocol: Since dogs are used in toxicology studies of antiasthma compounds, this species is chosen for pharmacokinetic evaluations. […] Heparinized blood samples are obtained from each animal on the first, third and fifth day of dosage at 0.5, 1.0, 2.0, 4.0, 7.0, 12.0 and 24.0 hours after the dose. The samples are centrifuged immediately to obtain plasma which is frozen until analyzed. […]
reported-property: concentration at 1 h (ng/mL)

a = c1cc(Nc2nccc(-c3cccs3)n2)cc(OCCn2ccnc2)c1
b = Cc1cc(Nc2nccc(-c3ccncc3)n2)ccc1N.Cl.Cl [Compound 2, reference compound]
Prompt: Which of these two has the smaller recorded concentration at 1 h: a or b ? Please indicate the selected item by its label.
Completion: b
(b: 58 ng/mL, a: 222 ng/mL)

----------
measurement-protocol: Pharmacokinetics in dogs (plasma concentration by HPLC)
Assay type: in vivo, dog (beagle)
condition-summary: dog, plasma, po, 2 mg/kg/day, Dog 1, day 1; 2 mg/kg/day PO
Method: Since dogs are used in toxicology studies of antiasthma compounds, this species is chosen for pharmacokinetic evaluations. […] Heparinized blood samples are obtained from each animal on the first, third and fifth day of dosage at 0.5, 1.0, 2.0, 4.0, 7.0, 12.0 and 24.0 hours after the dose. The samples are centrifuged immediately to obtain plasma which is frozen until analyzed. […]
reported-property: Cmax (ng/mL)

* Cc1cc(Nc2nccc(-c3ccncc3)n2)ccc1N.Cl.Cl [Compound 2, reference compound] | 512
* c1cc(Nc2nccc(-c3cccs3)n2)cc(OCCn2ccnc2)c1 | 595

----------
measurement-protocol: Pharmacokinetics in dogs (plasma concentration by HPLC)
Format: in vivo, dog (beagle)
condition-summary: dog, plasma, po, 2 mg/kg/day, Dog 3, day 1, 7 h; 2 mg/kg/day PO
reported-property: concentration at 7 h (ng/mL)
Report only the number, with the unit ng/mL understood.

Prompt: Entry under review: c1cc(Nc2nccc(-c3cccs3)n2)cc(OCCn2ccnc2)c1 . Reported concentration at 7 h?
Completion: 45

----------
measurement-protocol: Pharmacokinetics in dogs (plasma concentration by HPLC)
Format: in vivo, dog (beagle)
condition-summary: dog, plasma, po, 2 mg/kg/day, Dog 4, day 1, 12 h; 2 mg/kg/day PO
reported-property: concentration at 12 h

Prompt: Entry under review: c1cc(Nc2nccc(-c3cccs3)n2)cc(OCCn2ccnc2)c1 . Reported concentration at 12 h?
Completion: < 30 ng/mL

----------
measurement-protocol: Pharmacokinetics in dogs (plasma concentration by HPLC)
Assay type: in vivo, dog (beagle)
condition-summary: dog, plasma, po, 2 mg/kg/day, Dog 4, day 1, 2 h; 2 mg/kg/day PO
reported-property: concentration at 2 h (ng/mL)
Report only the number, with the unit ng/mL understood.

Prompt: Entry under review: c1cc(Nc2nccc(-c3cccs3)n2)cc(OCCn2ccnc2)c1 . Reported concentration at 2 h?
Completion: 325

----------
measurement-protocol: Pharmacokinetics in dogs (plasma concentration by HPLC)
Type: in vivo, dog (beagle)
condition-summary: dog, plasma, po, 2 mg/kg/day, Dog 3, day 1; 2 mg/kg/day PO
reported-property: Tmax (min)

a = c1cc(Nc2nccc(-c3cccs3)n2)cc(OCCn2ccnc2)c1
b = Cc1cc(Nc2nccc(-c3ccncc3)n2)ccc1N.Cl.Cl [Compound 2, reference compound]
Prompt: Of the two listed items, a and b , which carries the larger Tmax figure? Please indicate the selected item by its label.
Completion: a

----------
measurement-protocol: Pharmacokinetics in dogs (plasma concentration by HPLC)
Format: in vivo, dog (beagle)
condition-summary: dog, plasma, po, 2 mg/kg/day, Dog 2, day 5, 2 h; 2 mg/kg/day PO
reported-property: concentration at 2 h (ng/mL)
Report only the number, with the unit ng/mL understood.

Prompt: Entry under review: c1cc(Nc2nccc(-c3cccs3)n2)cc(OCCn2ccnc2)c1 . Reported concentration at 2 h?
Completion: 149

----------
measurement-protocol: Pharmacokinetics in dogs (plasma concentration by HPLC)
Assay type: in vivo, dog (beagle)
condition-summary: dog, plasma, po, 2 mg/kg/day, Dog 2, day 1, 0.5 h; 2 mg/kg/day PO
Method: Since dogs are used in toxicology studies of antiasthma compounds, this species is chosen for pharmacokinetic evaluations. […] Heparinized blood samples are obtained from each animal on the first, third and fifth day of dosage at 0.5, 1.0, 2.0, 4.0, 7.0, 12.0 and 24.0 hours after the dose. The samples are centrifuged immediately to obtain plasma which is frozen until analyzed. […]
reported-property: concentration at 0.5 h (ng/mL)

I = Cc1cc(Nc2nccc(-c3ccncc3)n2)ccc1N.Cl.Cl [Compound 2, reference compound]
II = c1cc(Nc2nccc(-c3cccs3)n2)cc(OCCn2ccnc2)c1
Prompt: Which of these two has the smaller recorded concentration at 0.5 h: I or II ? Please indicate the selected item by its label.
Completion: II

All values here come from patent US5162328A.
